experimental-details: modulators of HCV replicon luciferase signal, primary screen, HCV replication inhibitor project, Huh7 cells, luciferase reporter (AID 1109);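 also: huh7 hepatoma cells harbouring a luciferase neomycin HCV replicon reporter; luciferase luminescence as measure of HCV replicon replication; test concentration not given here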
condition-context: 48 h, higher = more signal
reported-endpoint: z-score

[
  {
    "compound": "COc1ccc(C#Cc2ccc3c(c2)[C@]2(C(=O)N3)[C@H](c3ccc(OCCO)cc3)N3[C@H](c4ccccc4)[C@H](c4ccccc4)OC(=O)[C@H]3[C@@H]2C(=O)O)cc1",
    "observed-value": -1.3
  },
  {
    "compound": "CC(C)CNC(=O)[C@@H]1c2ccccc2C(=O)N(CC23CC4CC(CC(C4)C2)C3)[C@H]1c1ccc(CO)cc1",
    "observed-value": -1.05
  },
  {
    "compound": "COCCCNC(=O)[C@@H]1c2ccccc2C(=O)N(C2CCCCC2)[C@H]1c1ccc(CO)cc1",
    "observed-value": -1.27
  },
  {
    "compound": "COCCOC(=O)N1C(=O)[C@@]2(c3cc(C#CC4(O)CCCCCC4)ccc31)[C@H](c1ccc(OCCO)cc1)N1[C@H](c3ccccc3)[C@H](c3ccccc3)OC(=O)[C@H]1[C@@H]2C(N)=O",
    "observed-value": -2.2
  },
  {
    "compound": "COC(=O)[C@@]1(Cc2ccc(OC)cc2)[C@H]2c3cc(C(=O)N4CCCC4)n(CCc4ccc(OC)c(Br)c4)c3C[C@H]2CN1C(=O)c1ccccc1",
    "observed-value": 0.0171
  },
  {
    "compound": "Cc1ccc(S(=O)(=O)N2[C@@H](c3ccccc3)C(C(=O)O)=CC[C@H]2c2ccc(C#N)cc2)cc1",
    "observed-value": -0.494
  },
  {
    "compound": "CN(C)CCCCNC(=O)[C@H]1C[C@H]2C(=O)N[C@@H](Cc3ccccc3)C(=O)N2[C@H]1c1cccc(OCCO)c1",
    "observed-value": -0.251
  },
  {
    "compound": "CCCC[C@@H]1C[C@H]1[C@@H](NC(=O)c1ccc(C(F)(F)F)cc1)c1ccc(C(=O)OC)cc1",
    "observed-value": -1.33
  },
  {
    "compound": "COc1ccc([Si](C)(C)[C@@H]2[C@@H](CC(=O)N(CCO)Cc3ccccc3)O[C@]3(C(=O)N(Cc4ccc(N5CCC5=O)cc4)c4ccccc43)[C@H]2C)cc1",
    "observed-value": -4.13
  },
  {
    "compound": "CCOC(=O)C1=CC[C@@H](c2ccc(F)cc2)N(S(=O)(=O)c2ccc(C)cc2)[C@H]1c1ccc([N+](=O)[O-])cc1",
    "observed-value": -1.05
  },
  {
    "compound": "C=CCC(OC(C)=O)[C@@H]1[C@@H](N(Cc2cccc3ccccc23)C(=O)c2ccc(-c3ccccc3)cc2)c2cc(OCCCO)ccc2N1C(=O)c1ccc2ccccc2n1 (some centres undefined)",
    "observed-value": 0.15
  },
  {
    "compound": "[N-]=[N+]=NCc1ccccc1C[C@]1(C(=O)N2CCOCC2)N=C(c2ccc(OCCCO)cc2)O[C@H]1c1ccccc1CN=[N+]=[N-]",
    "observed-value": -2.48
  },
  {
    "compound": "CN(C)CCCCNC(=O)[C@H]1C[C@H]2C(=O)NCC(=O)N2[C@H]1c1cccc(OCCO)c1",
    "observed-value": 0.195
  },
  {
    "compound": "C[N+](C)(C)CCCCCCNC(=O)[C@H]1C[C@H]2C(=O)NCC(=O)N2[C@H]1c1cccc(OCCO)c1",
    "observed-value": 0.643
  }
]

###

target-under-test: Fibroblast growth factor 10 (Homo sapiens)
experimental-details: FGF10 binders on small-molecule microarrays, primary screen, biochemical, small-molecule microarray, 635 nm fluorescence (AID 1102)
condition-context: FGF10 binding, fluorescence 635 nm, higher = more signal
Parameter class (string): assigned from measured composite z-score. Ranges: A: < 0.4; B: ≥ 0.4 and < 0.9; C: ≥ 0.9

[
  {
    "compound": "COC(=O)[C@@]1(Cc2ccccc2CN=[N+]=[N-])COC(c2ccc(OCCCO)cc2)=N1",
    "target-under-test": "Fibroblast growth factor 10 (Homo sapiens)",
    "assigned-category": "A"
  },
  {
    "compound": "CCOC(=O)C[C@H]1[C@H](OC(=O)Cc2ccc3c(c2)OCO3)[C@@H](NC(=O)c2ccccc2)c2cc(OCCCO)ccc2N1C(=O)Cc1ccc(OC)cc1",
    "target-under-test": "Fibroblast growth factor 10 (Homo sapiens)",
    "assigned-category": "A"
  },
  {
    "compound": "O=C1C2C=CC(C(O)c3ccc([N+](=O)[O-])cc3)N(Nc3ccccc3)C2C(=O)N1c1ccccc1 (stereo not given)",
    "target-under-test": "Fibroblast growth factor 10 (Homo sapiens)",
    "assigned-category": "B"
  },
  {
    "compound": "N#Cc1ccc(C(O)C2C=CC3C(=O)NC(=O)C3N2Nc2ccccn2)cc1 (stereo not given)",
    "target-under-test": "Fibroblast growth factor 10 (Homo sapiens)",
    "assigned-category": "A"
  },
  {
    "compound": "CC(C)=CCN(C(=O)C#Cc1ccccc1)[C@H](CO)c1ccccc1",
    "target-under-test": "Fibroblast growth factor 10 (Homo sapiens)",
    "assigned-category": "A"
  },
  {
    "compound": "CCCCC(=C=CC[C@@H](O)c1cccc(OCCO)c1)CCO",
    "target-under-test": "Fibroblast growth factor 10 (Homo sapiens)",
    "assigned-category": "B"
  },
  {
    "compound": "CC(C)C(=C=CC[C@@H](O)c1ccc(OCCO)cc1)CCO",
    "target-under-test": "Fibroblast growth factor 10 (Homo sapiens)",
    "assigned-category": "B"
  },
  {
    "compound": "CO[C@H]1O[C@H](CO)[C@@H](OC(=O)Nc2ccc(C(F)(F)F)cc2)[C@H](OC(=O)Nc2ccccc2-c2ccccc2)[C@H]1OC(=O)Nc1ccccc1-c1ccccc1",
    "target-under-test": "Fibroblast growth factor 10 (Homo sapiens)",
    "assigned-category": "C"
  },
  {
    "compound": "CC(C)(C)OC(=O)CC[C@]1(C(N)=O)N=C(c2ccc(OCCCO)cc2)O[C@H]1c1ccccc1CN=[N+]=[N-]",
    "target-under-test": "Fibroblast growth factor 10 (Homo sapiens)",
    "assigned-category": "C"
  },
  {
    "compound": "CCCCC(=C=CC[C@H](O)c1ccc(OCCO)cc1)C[C@H](O)c1ccccn1",
    "target-under-test": "Fibroblast growth factor 10 (Homo sapiens)",
    "assigned-category": "C"
  },
  {
    "compound": "C[N+](C)(C)CCCC[C@@H]1NC(=O)[C@H]2C[C@@H](C(=O)NCCCCCNC(=O)CS)[C@@H](c3ccc(O)cc3)N2C1=O",
    "target-under-test": "Fibroblast growth factor 10 (Homo sapiens)",
    "assigned-category": "B"
  },
  {
    "compound": "COc1ccc([Si](C)(C)[C@H]2[C@H](CCn3cc([C@H](O)c4ccccc4)nn3)O[C@@]3(C(=O)N(C)c4c(Br)cc(C)cc43)[C@@H]2C)cc1",
    "target-under-test": "Fibroblast growth factor 10 (Homo sapiens)",
    "assigned-category": "B"
  },
  {
    "compound": "CC(C)(C)OC(=O)CC[C@]1(C(=O)N2CCOCC2)N=C(c2ccc(OCCCO)cc2)O[C@H]1c1ccccc1CN=[N+]=[N-]",
    "target-under-test": "Fibroblast growth factor 10 (Homo sapiens)",
    "assigned-category": "C"
  },
  {
    "compound": "CCOC(=O)C[C@H]1[C@H](OC(=O)c2ccc(-c3ccccc3)cc2)[C@@H](NC(=O)CC(C)C)c2cc(OCCCO)ccc2N1C(=O)Cc1ccc(OC)cc1",
    "target-under-test": "Fibroblast growth factor 10 (Homo sapiens)",
    "assigned-category": "A"
  },
  {
    "compound": "CN1C(=O)[C@]2(CCS(=O)(=O)c3ccccc3)N=C(c3ccc(OCCCO)cc3)O[C@@H]2c2ccccc21",
    "target-under-test": "Fibroblast growth factor 10 (Homo sapiens)",
    "assigned-category": "B"
  },
  {
    "compound": "COCC1=C([C@H](O)CCc2ccccc2)[C@H](CO)n2c(=O)n(-c3ccccc3)c(=O)n2C1",
    "target-under-test": "Fibroblast growth factor 10 (Homo sapiens)",
    "assigned-category": "A"
  },
  {
    "compound": "COC(=O)Cn1c(C(=O)N(C)C)cc2c1C[C@H]1CN(C(=O)c3ccccc3)[C@@](Cc3ccc(OC)cc3)(C(=O)OC)[C@@H]21",
    "target-under-test": "Fibroblast growth factor 10 (Homo sapiens)",
    "assigned-category": "C"
  },
  {
    "compound": "C=CCN1C(=O)[C@]2(O[C@H](CCn3cc([C@H](O)c4ccccc4)nn3)[C@@H]([Si](C)(C)c3ccc(OC)cc3)[C@@H]2C)c2cc(N3C(=O)c4cccc5cccc3c45)ccc21",
    "target-under-test": "Fibroblast growth factor 10 (Homo sapiens)",
    "assigned-category": "B"
  },
  {
    "compound": "COc1ccc(C#Cc2ccc3c(c2)[C@]2(C(=O)N3)[C@H](c3ccc(OCCO)cc3)N3[C@H](c4ccccc4)[C@H](c4ccccc4)OC(=O)[C@H]3[C@@H]2C(=O)O)cc1",
    "target-under-test": "Fibroblast growth factor 10 (Homo sapiens)",
    "assigned-category": "C"
  },
  {
    "compound": "CN(C)C(=O)[C@]1(Cc2ccccc2CN=[N+]=[N-])N=C(c2ccc(OCCCO)cc2)O[C@@H]1c1ccccc1N=[N+]=[N-]",
    "target-under-test": "Fibroblast growth factor 10 (Homo sapiens)",
    "assigned-category": "C"
  },
  {
    "compound": "COC(=O)C(CC#Cc1ccc2c(c1)[C@]1(C(=O)N2)[C@H](c2ccc(O)cc2)N2[C@H](c3ccccc3)[C@H](c3ccccc3)OC(=O)[C@H]2[C@@H]1C(=O)N1CCc2cc(OC)c(OC)cc2C1)C(=O)OC",
    "target-under-test": "Fibroblast growth factor 10 (Homo sapiens)",
    "assigned-category": "B"
  },
  {
    "compound": "CC1(C)OC[C@@]23C=C(Br)[C@@H](C[C@H]12)[C@@]1(CO1)C3=O",
    "target-under-test": "Fibroblast growth factor 10 (Homo sapiens)",
    "assigned-category": "B"
  },
  {
    "compound": "COC(=O)[C@@]1(Cc2ccc(F)cc2)[C@H]2c3cc(C(=O)N(C)C)n(CCN4CCOCC4)c3C[C@H]2CN1C(=O)c1ccccc1",
    "target-under-test": "Fibroblast growth factor 10 (Homo sapiens)",
    "assigned-category": "C"
  },
  {
    "compound": "COC(=O)[C@H](Cc1ccc(O)cc1)N1CC2=CCCC=C[C@@H]2[C@H]1[C@H](O)Cc1ccccc1",
    "target-under-test": "Fibroblast growth factor 10 (Homo sapiens)",
    "assigned-category": "B"
  },
  {
    "compound": "[N-]=[N+]=Nc1ccccc1[C@@H]1OC(c2ccc(OCCCO)cc2)=N[C@]1(Cc1ccccc1)C(N)=O",
    "target-under-test": "Fibroblast growth factor 10 (Homo sapiens)",
    "assigned-category": "A"
  },
  {
    "compound": "COc1ccccc1CN1C(=O)c2ccccc2[C@](Cc2ccccc2I)(C(=O)NCCCN(C)C)[C@@H]1c1ccc(CO)cc1",
    "target-under-test": "Fibroblast growth factor 10 (Homo sapiens)",
    "assigned-category": "A"
  },
  {
    "compound": "CC(C)C[C@@H]1NC(=O)[C@H]2C[C@@H](C(=O)NCCCCCNC(=O)CS)[C@@H](c3ccc(O)cc3)N2C1=O",
    "target-under-test": "Fibroblast growth factor 10 (Homo sapiens)",
    "assigned-category": "C"
  }
]
